This collection of values is drawn from patent US20150218257A1.

Molecular target: HIV-1 JR-FL(E168K) Env on pseudovirus (HIV-1 strain JR-FL)
Assay: cell-based or functional assay
Endpoint Name: IC50 (ug/ml), pseudovirus neutralisation, TZM-bl assay

Exercise: Need IC50 (ug/ml), pseudovirus neutralisation, TZM-bl assay, item 1503_H05 (PG16) antibody, sister clone of 1443_C16 (antibody, V domains shown) VH: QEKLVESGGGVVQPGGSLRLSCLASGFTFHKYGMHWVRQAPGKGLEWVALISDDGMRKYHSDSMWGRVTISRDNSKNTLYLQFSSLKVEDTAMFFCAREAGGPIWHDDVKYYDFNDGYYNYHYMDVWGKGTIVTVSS VL: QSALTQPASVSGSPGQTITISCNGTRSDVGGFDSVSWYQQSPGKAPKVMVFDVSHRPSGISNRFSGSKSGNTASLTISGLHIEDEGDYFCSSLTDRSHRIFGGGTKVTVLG
Key: 0.002 µg/mL
